These measurements were taken from patent US9656963B2.

Recorded pEC50, one value per entry.
# tested-target: hGPR40 (Homo sapiens, UniProt O14842)
# Construct: 3x FLAG
# Sequence (O14842 whole entry): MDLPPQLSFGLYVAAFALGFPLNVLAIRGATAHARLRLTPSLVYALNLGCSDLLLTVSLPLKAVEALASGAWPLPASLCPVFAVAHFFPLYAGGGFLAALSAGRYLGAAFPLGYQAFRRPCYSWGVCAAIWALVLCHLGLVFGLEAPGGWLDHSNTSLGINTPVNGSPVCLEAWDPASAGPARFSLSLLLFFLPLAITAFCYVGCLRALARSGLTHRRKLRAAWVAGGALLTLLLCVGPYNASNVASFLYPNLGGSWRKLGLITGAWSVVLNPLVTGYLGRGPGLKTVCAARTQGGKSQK
# experiment: FDSS-Based Intracellular Calcium Assay
# measurement-conditions: cells expressing GPR40, intracellular Ca2+ response
pEC50: −log10 of the molar value.
measurement-label: pEC50

INSERT INTO measurements (compound, tested_target, qualifying_sign, value) VALUES
  ('Cc1ccccc1Oc1ccc(N2N=C(C#N)CC2CC(=O)O)cc1 (single isomer, unassigned) [Example 3, Isomer 2]', 'hGPR40 (Homo sapiens, UniProt O14842)', '=', 6.25),
  ('Cc1ccccc1Oc1ccc(N2N=C(c3nnnn3C)CC2CC(=O)O)cc1 (racemic)', 'hGPR40 (Homo sapiens, UniProt O14842)', '=', 5.49),
  ('Cc1cc(Oc2ccc(N3N=C(C#N)CC3CC(=O)O)cc2)c(C)cc1Br (racemic)', 'hGPR40 (Homo sapiens, UniProt O14842)', '=', 6.44),
  ('COc1ccc(F)c(-c2ccc(Cc3ccc(N4N=C(c5ccc(Cl)cc5)[C@@H](C)[C@@H]4CC(=O)O)cc3)c(C)c2)c1 (single isomer, unassigned) [Example 66, Isomer 1]', 'hGPR40 (Homo sapiens, UniProt O14842)', '=', 7.89),
  ('COc1ccc(F)c(-c2ccc(Cc3ccc(N4N=C(c5ncccn5)C(C)C4CC(=O)O)cc3)c(C)c2)c1 (single isomer, unassigned) [Example 61 isomer 1]', 'hGPR40 (Homo sapiens, UniProt O14842)', '<', 4.78),
  ('COc1ccc(F)c(-c2cc(C)c(Cc3ccc(N4N=C(C(F)(F)F)CC4CC(=O)O)cc3)c(F)c2)c1 (single isomer, unassigned) [Example 21, Isomer 1]', 'hGPR40 (Homo sapiens, UniProt O14842)', '=', 6.30),
  ('COc1ccc(F)c(-c2ccc(Cc3ccc(N4N=C(c5cccc(Cl)c5)[C@@H](C)[C@@H]4CC(=O)O)cc3)c(C)c2)c1 (single isomer, unassigned) [Example 68, isomer 1]', 'hGPR40 (Homo sapiens, UniProt O14842)', '=', 7.82),
  ('N#CC1=NN(c2ccc(Oc3cccc(Cl)c3)cc2)C(CC(=O)O)C1 (racemic)', 'hGPR40 (Homo sapiens, UniProt O14842)', '=', 6.66),
  ('COc1ccc(F)c(-c2ccc(Cc3ccc(N4N=C(c5ccccn5)C(C)C4CC(=O)O)cc3)c(C)c2)c1 (single isomer, unassigned) [example 62, isomer 2]', 'hGPR40 (Homo sapiens, UniProt O14842)', '=', 7.20),
  ('CCOc1ccc(F)c(-c2ccc(Cc3ccc(N4N=C(C(F)(F)F)[C@@H](C)[C@@H]4CC(=O)O)cc3)c(C)c2)c1', 'hGPR40 (Homo sapiens, UniProt O14842)', '=', 6.92),
  ('COc1cccc(-c2cc(C)c(Oc3ccc(N4N=C(C#N)CC4CC(=O)O)cc3)cc2C)c1 (racemic)', 'hGPR40 (Homo sapiens, UniProt O14842)', '=', 6.23),
  ('COc1ccc(F)c(-c2cnc(Oc3ccc(N4N=C(C(F)(F)F)[C@@H](C)[C@@H]4CC(=O)O)cc3)nc2)c1', 'hGPR40 (Homo sapiens, UniProt O14842)', '=', 5.83);

----------
# tested-target: hGPR40 (Homo sapiens)
# Construct: 3x FLAG
# experiment: FDSS-Based Intracellular Calcium Assay
# measurement-conditions: cells expressing GPR40, intracellular Ca2+ response
Recorded EC50, one value per entry.
measurement-label: EC50 (nM)

INSERT INTO assay_data (compound, unit_abbrev, value) VALUES
  ('Cc1cc(-c2cnccn2)ccc1Cc1ccc(N2N=C(C(F)(F)F)[C@@H](C)[C@@H]2CC(=O)O)cc1 [Example 76]', 'nM', 1620),
  ('COc1ccc(F)c(-c2ncc(Cc3ccc(N4N=C(C(F)(F)F)[C@@H](C)[C@@H]4CC(=O)O)cc3)c(C)n2)c1 (single isomer, unassigned) [Example 63]', 'nM', 700),
  ('COc1cccc(-c2ccc(Cc3ccc(N4N=C(C#N)CC4CC(=O)O)cc3)c(C)c2)c1 (racemic) [Example 38]', 'nM', 190),
  ('COc1ccc(F)c(-c2ccc(Cc3ccc(N4N=C(C(F)(F)F)CC4CC(=O)O)cc3)c(C)c2)c1 (single isomer, unassigned) [Example 17, Isomer 1]', 'nM', 150),
  ('COc1ccc(F)c(-c2cc(C)c(Oc3ccc(N4N=C(C#N)CC4CC(=O)O)cc3)cc2C)c1 (racemic) [Example 35]', 'nM', 180),
  ('COc1cc(-c2ccc(Oc3ccc(N4N=C(C(F)(F)F)CC4CC(=O)O)cc3)c(C)c2)c(F)cn1 (single isomer, unassigned) [Example 15, Isomer 1]', 'nM', 270);

----------
Recorded EC50, one value per entry.
# tested-target: hGPR40 (Homo sapiens, UniProt O14842)
# Construct: 3x FLAG
# experiment: FDSS-Based Intracellular Calcium Assay
# measurement-conditions: cells expressing GPR40, intracellular Ca2+ response
measurement-label: EC50 (nM)

INSERT INTO assay_data (compound, measurement_label, unit_abbrev, value) VALUES
  ('COc1ccc(F)c(-c2ccc(Oc3ccc(N4N=C(C(F)(F)F)CC4CC(=O)O)cc3)c(Cl)c2)c1 (single isomer, unassigned) [Example 42, Isomer 1]', 'EC50', 'nM', 620),
  ('COc1ccc(F)c(-c2ccc(Cc3ccc(N4N=C(C(F)(F)F)C(CC#N)C4CC(=O)O)cc3)c(C)c2)c1 (single isomer, unassigned) [Example 54, Isomer 2]', 'EC50', 'nM', 1100),
  ('COc1ccc(F)c(-c2ccc(Cc3ccc(N4N=C(C(F)(F)F)CC4CC(=O)O)cc3)c(F)c2)c1 (single isomer, unassigned) [Example 19, Isomer 2]', 'EC50', 'nM', 90);

----------
# tested-target: hGPR40 (Homo sapiens, UniProt O14842)
# Construct: 3x FLAG
# experiment: FDSS-Based Intracellular Calcium Assay
# measurement-conditions: cells expressing GPR40, intracellular Ca2+ response
pEC50: −log10 of the molar value.
measurement-label: pEC50

INSERT INTO results (molecule, measurement_label, value) VALUES
  ('COc1ccc(F)c(-c2ccc(Cc3ccc(N4N=C(C(F)(F)F)CC4CC(=O)O)cc3)c(C)c2)c1 (single isomer, unassigned) [Example 17, Isomer 2]', 'pEC50', 7.05),
  ('COc1cccc(-c2ccc(Oc3ccc(N4N=C(C(F)(F)F)CC4CC(=O)O)cc3)c(C)c2)c1 (single isomer, unassigned) [Example 9, Isomer 2]', 'pEC50', 6.54),
  ('Cc1cc(Cc2ccc(N3N=C(C(F)(F)F)CC3CC(=O)O)cc2)ccc1-c1cc(OC(F)(F)F)ccc1Cl (racemic)', 'pEC50', 6.55),
  ('COc1ccc(F)c(-c2ccc(Cc3ccc(N4N=C(C(F)(F)F)C(CC(C)C)C4CC(=O)O)cc3)c(C)c2)c1 (single isomer, unassigned) [Example 41, Isomer 2]', 'pEC50', 7.02),
  ('COc1cccc(-c2ccc(Cc3ccc(N4N=C(C(F)(F)F)CC4CC(=O)O)cc3)c(C)c2)c1 (single isomer, unassigned) [Example 26, Isomer 1]', 'pEC50', 6.48),
  ('N#CC1=NN(c2ccc(OCc3ccc(Cl)cc3Cl)cc2)C(CC(=O)O)C1 (racemic)', 'pEC50', 6.52);

----------
# tested-target: hGPR40 (Homo sapiens)
# Construct: 3x FLAG
# experiment: FDSS-Based Intracellular Calcium Assay
# measurement-conditions: cells expressing GPR40, intracellular Ca2+ response
Label rule met when EC50 is strictly below 800 nM; at or above that, label rule not met.

INSERT INTO results (compound, group_label) VALUES
  ('Cc1ccccc1Oc1ccc(N2N=C(C(=O)N(C)C)CC2CC(=O)O)cc1 (racemic)', 'rule not met'),
  ('COc1ccc(F)c(-c2ccc(Oc3ccc(N4N=C(C#N)CC4CC(=O)O)cc3)c(C)c2)c1 (racemic)', 'rule met'),
  ('COc1ccc(F)c(-c2ccc(Cc3ccc(N4N=C(C(F)(F)F)CC4CC(=O)O)cc3)c(Cl)c2)c1 (single isomer, unassigned) [Example 20, Isomer 1]', 'rule met'),
  ('COc1ccc(F)c(-c2ccc(Cc3ccc(N4N=C(C(F)(F)F)C[C@@H]4CC(=O)O)cc3)c(Cl)c2)c1 (single isomer, unassigned) [Example 20, Isomer 2]', 'rule met'),
  ('COc1ccc(F)c(-c2ccc(Cc3ccc(N4N=C(C(F)(F)F)CC4CC(=O)O)cc3)cc2C)c1 (single isomer, unassigned) [Example 22, Isomer 2]', 'rule met'),
  ('COc1ccc(F)c(-c2cc(C)c(Oc3ccc(N4N=C(C(F)(F)F)CC4CC(=O)O)cc3)cc2F)c1 (racemic)', 'rule met'),
  ('Cc1nc(-c2ccccc2)ncc1Cc1ccc(N2N=C(C(F)(F)F)[C@@H](C)[C@@H]2CC(=O)O)cc1', 'rule not met'),
  ('COc1ccc(F)c(-c2ccc(Cc3ccc(N4N=C(c5cc(C)on5)[C@@H](C)[C@@H]4CC(=O)O)cc3)c(C)c2)c1 (single isomer, unassigned) [Example 69, isomer 1]', 'rule met'),
  ('COc1ccc(F)c(-c2ccc(Cc3ccc(N4N=C(C(F)(F)F)C(C)C4CC(=O)O)cc3)c(Cl)c2)c1 (single isomer, unassigned) [Example 60, Isomer 1]', 'rule not met'),
  ('COc1ccc(F)c(-c2ccc(Cc3ccc(N4N=C(c5ccccc5)C(C)C4CC(=O)O)cc3)c(C)c2)c1 (single isomer, unassigned) [Example 59, Isomer 1]', 'rule not met'),
  ('COc1cc(-c2ccc(Cc3ccc(N4N=C(C(F)(F)F)CC4CC(=O)O)cc3)c(C)c2)c(F)cn1 (single isomer, unassigned) [Example 27, Isomer 1]', 'rule met');
